# Assay System: human ether-à-go-go-related gene (hERG) potassium channel (human)
# Experiment Summary: primary screen, population patch clamp on CHO cells stably expressing hERG; higher = less effect of the substance
# Description: Briefly, Chinese hamster ovary (CHO) cells stably expressing the hERG channel were dislodged from tissue culture flasks and dispensed into PPC plates. […] During the recording, background leak currents were estimated by a 100 ms step to -80 mV from an initial holding potential of -70 mV and subtracted from the subsequent current measurement. The campaign was conducted in two phases using slight differences in recording protocol. […]
In all, about 310,000 compounds went through this assay and about 14,000 (4.5%) showed an effect of 50% or more. Effects have a minus sign here. Shown is part of a subset that was picked to be rich in strong results.
Label fulfilled when hERG current change (%, negative = inhibition) at 10uM >= -10%; otherwise not fulfilled.

Solved cases (6 shown):
O=C(Nc1ccc2c(c1)CCC2)c1ccccc1 ... fulfilled
COc1ccc(S(=O)(=O)N2CCN(Cc3c[nH]c4ccccc34)CC2)cc1 ... not fulfilled
COc1ccc(NS(=O)(=O)c2cc(C)ccc2OC)cc1OC ... fulfilled
CN(C)CCCNC(=O)c1cc(C(=O)c2cccc(Cl)c2Cl)c[nH]1 ... not fulfilled
O=C(Cc1ccccc1)NCCc1c[nH]c2ccccc12.O=C(O)C(=O)O ... fulfilled
Br.Clc1ccc2nc(CN3CCCCC3)cn2c1 ... not fulfilled

Ask: Kindly determine if hERG current change (%, negative = inhibition) at 10uM recorded for CCN(CC)C(=O)CSc1ncnc2c1cnn2Cc1ccccc1 is above or exactly -10%.
Reply: not fulfilled

Ask: What do you have for Brc1ccc(CN2CCN(Cc3c[nH]c4ccccc34)CC2)cc1.O=C(O)C(=O)O ?
Reply: not fulfilled

Ask: Further, for CN(C)CCCNC(=O)c1cc(C(=O)c2c(Cl)cccc2Cl)c[nH]1 ?
Reply: fulfilled

Ask: Proceed to CN(C)CCCNC(=O)c1cc(C(=O)c2ccccc2F)c[nH]1
Reply: fulfilled

Ask: Another molecule to check: CN(C)CCCNC(=O)c1cc(C(=O)c2ccccc2)c[nH]1
Reply: fulfilled

Ask: Next record, please: COc1ccc(Br)cc1CN1CCN(Cc2c[nH]c3ccccc23)CC1.O=C(O)C(=O)O
Reply: not fulfilled

Ask: CC(C)(C)C(=O)Nc1ccc(S(=O)(=O)N2CCCC2)cc1 ?
Reply: fulfilled

Ask: Similarly, COc1ccccc1C(=O)N1CCN(Cc2c[nH]c3ccccc23)CC1.O=C(O)C(=O)O ?
Reply: not fulfilled

Ask: Next molecule up: CCS(=O)(=O)N1CCN(Cc2c[nH]c3ccccc23)CC1.O=C(O)C(=O)O
Reply: fulfilled

Ask: Could you do the same for CCOc1ccc(CN2CCN(C(=O)Cc3ccccc3)CC2)cc1.O=C(O)C(=O)O , please?
Reply: not fulfilled

Ask: What about CN(Cc1ccccc1)Cc1c[nH]c2ccccc12 ?
Reply: not fulfilled

Ask: Would you kindly repeat that for COCCN1CCN(C(=O)C2CCC(=O)N(CCc3ccccc3)C2)CC1 (stereo not drawn) ?
Reply: fulfilled

Ask: What would you report for CN(CCc1ccccc1)Cc1c[nH]c2ccccc12.O=C(O)C(=O)O ?
Reply: not fulfilled

Ask: Next: Brc1ccccc1CN1CCN(Cc2c[nH]c3ccccc23)CC1.O=C(O)C(=O)O
Reply: not fulfilled

Ask: Next molecule: CCNC(=S)N/N=C/c1cccs1
Reply: fulfilled

====

# Assay System: human ether-à-go-go-related gene (hERG) potassium channel (human, UniProt Q12809)
# Sequence (Q12809 whole entry, looked up): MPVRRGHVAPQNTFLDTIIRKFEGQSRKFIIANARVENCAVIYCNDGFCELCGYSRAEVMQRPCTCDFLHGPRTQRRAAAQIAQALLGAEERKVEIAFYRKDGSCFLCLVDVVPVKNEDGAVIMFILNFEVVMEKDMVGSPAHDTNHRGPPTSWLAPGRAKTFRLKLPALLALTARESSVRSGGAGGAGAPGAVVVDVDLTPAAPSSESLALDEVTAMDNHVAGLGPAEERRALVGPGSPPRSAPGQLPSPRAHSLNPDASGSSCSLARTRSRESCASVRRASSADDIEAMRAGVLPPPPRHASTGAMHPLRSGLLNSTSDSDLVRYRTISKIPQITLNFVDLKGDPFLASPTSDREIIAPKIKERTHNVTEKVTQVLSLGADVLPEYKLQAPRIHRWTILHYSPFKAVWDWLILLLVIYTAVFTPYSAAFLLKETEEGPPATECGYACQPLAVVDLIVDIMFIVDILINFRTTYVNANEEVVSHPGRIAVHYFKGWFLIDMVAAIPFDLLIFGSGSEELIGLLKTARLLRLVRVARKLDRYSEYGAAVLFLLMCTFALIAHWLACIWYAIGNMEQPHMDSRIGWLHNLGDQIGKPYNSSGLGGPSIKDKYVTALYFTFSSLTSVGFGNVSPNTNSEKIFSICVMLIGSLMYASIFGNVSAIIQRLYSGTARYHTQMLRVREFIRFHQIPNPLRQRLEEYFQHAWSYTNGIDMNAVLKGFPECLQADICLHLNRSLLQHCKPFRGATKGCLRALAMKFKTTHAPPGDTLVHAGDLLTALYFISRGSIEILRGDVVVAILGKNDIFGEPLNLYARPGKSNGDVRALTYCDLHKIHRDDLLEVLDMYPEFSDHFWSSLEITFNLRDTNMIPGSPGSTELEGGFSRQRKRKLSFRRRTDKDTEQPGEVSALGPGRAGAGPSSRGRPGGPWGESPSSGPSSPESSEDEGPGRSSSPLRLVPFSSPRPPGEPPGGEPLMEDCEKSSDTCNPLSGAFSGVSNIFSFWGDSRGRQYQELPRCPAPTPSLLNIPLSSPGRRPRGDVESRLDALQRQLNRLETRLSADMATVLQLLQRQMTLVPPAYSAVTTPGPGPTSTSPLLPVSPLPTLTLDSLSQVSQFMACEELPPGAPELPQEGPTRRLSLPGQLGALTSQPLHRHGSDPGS
# Experiment Summary: primary screen, population patch clamp on CHO cells stably expressing hERG; higher = less effect of the substance
Hit rate of the full screen: of about 310,000 compounds, about 14,000 (4.5%) showed an effect of 50% or more. The effect is printed as a negative number. This is one part of a sample in which strong results are shown more often than they occur.
Measurement Name: hERG current change (%, negative = inhibition) at 10uM (%)
Give the number; % is assumed, so skip it.

Sample answers from the record:
Cc1noc(C)c1S(=O)(=O)N1CCC(C(=O)N2CCN(c3ccc(Cl)cc3)CC2)CC1 ... -51.7
COc1ccc(N2CCN(S(=O)(=O)c3c(C)noc3/C=C/N(C)C)CC2)cc1 ... -0.914
Cc1ccc(S(=O)(=O)N2CCC(C(=O)NCCN3CCOCC3)CC2)cc1C ... 8.7

Ask: Query hERG current change (%, negative = inhibition) at 10uM on human ether-à-go-go-related gene (hERG) potassium channel (human, UniProt Q12809) for O=C(NCc1ccccc1CN1CCCC1)C1CCN(S(=O)(=O)c2ccc(F)c(F)c2)CC1
Reply: -59.1

Ask: And what about the compound COc1ccc(S(=O)(=O)N2CCC(C(=O)NCCC3=CCCCC3)CC2)cc1OC ?
Reply: -23.5

Ask: Request: COc1ccc(S(=O)(=O)N2CCC(C(=O)NCCC3=CCCCC3)CC2)cc1C
Reply: -56.2

Ask: For COc1ccc(N2CCN(C(=O)C3CCCN(S(=O)(=O)c4ccc(F)cc4)C3)CC2)cc1 (stereo not drawn) then?
Reply: -39.2

Ask: Repeat with CCOC(=O)CN1C(=O)C(Sc2n[nH]c(-c3cccc(C)c3)n2)CCc2ccccc21 (stereo not drawn)
Reply: 6.35

Ask: What about O=S(=O)(Nc1ncccn1)c1ccc(NC(=S)N2CCN(Cc3ccc(F)cc3Cl)CC2)cc1 ?
Reply: 22

====

Listed next: entries and their corresponding hERG current change (%, negative = inhibition) at 10uM.
# Assay System: human ether-à-go-go-related gene (hERG) potassium channel (human);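 further: peak tail current of the secondary pulse compared with the same well before compound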
# Experiment Summary: primary screen, population patch clamp on CHO cells stably expressing hERG; higher = less effect of the substance
In all, about 310,000 compounds went through this assay and about 14,000 (4.5%) showed an effect of 50% or more. The effect is printed as a negative number. Shown is part of a subset that was picked to be rich in strong results.
Express your answer in %, writing the number without its unit.

Completed entries (count: 8):
CCc1nc2ccc(C(=O)NCCCN3CCN(c4ccccc4F)CC3)cc2nc1CC ... -49.8
CCc1nc2ccc(C(=O)NCCCN3CCN(c4ccc(F)cc4)CC3)cc2nc1CC ... -66.4
Cc1c(C)n(C)c2ccc(C(=O)NCCCN3CCCC3)cc12 ... -23.8
Cc1c(C)n(C)c2ccc(C(=O)NCCCN3CCN(C)CC3)cc12 ... 14.9
COc1ccc(N2CCN(CCNC(=O)c3c(C)cc(=O)oc3C)CC2)cc1 ... -12.2
Cc1cccc[n+]1CC(=O)c1ccc(NC(=O)c2ccccc2)cc1.[Br-] ... 28.6
Cc1cc(=O)oc(C)c1C(=O)NCCCN1CCN(c2ccccc2F)CC1 ... -40.4
O=C(NCCCN1CCN(c2ccc(F)cc2)CC1)c1cccc(N2CCCC2=O)c1 ... -48.5

Ask: Would you kindly share the measured hERG current change (%, negative = inhibition) at 10uM for Cc1c(C)n(C)c2ccc(C(=O)NCCCN3CCN(c4ccccc4F)CC3)cc12 ?
Reply: -54.2

====

# Assay System: human ether-à-go-go-related gene (hERG) potassium channel (human);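 further: peak tail current of the secondary pulse compared with the same well before compound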
# Experiment Summary: primary screen, population patch clamp on CHO cells stably expressing hERG; higher = less effect of the substance
About 14,000 (4.5%) of roughly 310,000 compounds showed an effect of 50% or more. Effects have a minus sign here. This excerpt belongs to a sample that is enriched for strong results.
Measurement Name: hERG current change (%, negative = inhibition) at 10uM (%)
The answer is to be given in %; state only the numeric part.

Below, each entry is followed by its recorded hERG current change (%, negative = inhibition) at 10uM result.
CCOC(=O)C1CCN(c2cc3c(cc2NC(=O)c2ccccc2Cl)n(C)c(=O)n3C)CC1 ... -48.8
C(=N\Nc1nc(-c2ccccc2)cs1)/c1cccs1 ... 18.5

API: the following record is the query input.
Ask: Which hERG current change (%, negative = inhibition) at 10uM reading was recorded for the compound CCOC(=O)c1c(NC(=O)CCS(=O)(=O)c2ccccc2)sc2c1CCN(C(C)C)C2.Cl ?
Reply: -72.4

====

# Assay System: human ether-à-go-go-related gene (hERG) potassium channel (human);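 further: peak tail current of the secondary pulse compared with the same well before compound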
# Experiment Summary: primary screen, population patch clamp on CHO cells stably expressing hERG; higher = less effect of the substance
About 14,000 (4.5%) of roughly 310,000 compounds showed an effect of 50% or more. The effect is printed as a negative number. Shown is part of a subset that was picked to be rich in strong results.
Measurement Name: hERG current change (%, negative = inhibition) at 10uM

Ask: Which hERG current change (%, negative = inhibition) at 10uM value is on record for CCc1ccc(-c2nc(CN3CCC(C(=O)N4CCN(c5ccccc5)CC4)CC3)c(C)o2)cc1 ?
Reply: -71.3%

====

# Assay System: human ether-à-go-go-related gene (hERG) potassium channel (human);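 further: peak tail current of the secondary pulse compared with the same well before compound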
# Experiment Summary: primary screen, population patch clamp on CHO cells stably expressing hERG; higher = less effect of the substance
The campaign covered roughly 310,000 compounds. About 14,000 (4.5%) showed an effect of 50% or more. The effect is printed as a negative number. For the sample, strong results were picked, then their nearest neighbours and some compounds at random.
Measurement Name: hERG current change (%, negative = inhibition) at 10uM (%)
// note: answer is a bare numeric in %

COc1ccccc1C(=O)N/C(=C\c1ccccc1)C(=O)NCc1ccco1 ... -38.1
COc1ccc(/C=C(/NC(=O)c2ccccc2)c2nc3ccccc3[nH]2)cc1OC ... -12.5

Ask: Endpoint output: hERG current change (%, negative = inhibition) at 10uM of Cc1ccc(N2CC(C(=O)OCC(=O)c3ccc([N+](=O)[O-])cc3)CC2=O)cc1 (centres unmarked) . Value?
Reply: -26.8

Ask: Again, but for O=C(NCc1ccco1)/C(=C\c1ccccc1)NC(=O)c1ccccc1
Reply: 6.85

Ask: What would you report for COc1ccc(C(=O)N/C(=C/c2cccnc2)C(=O)NCc2ccco2)cc1OC ?
Reply: 9.12
